biological target: β 5i (chymotrypsin-like activity) (Homo sapiens, UniProt P20618+P28062); construct: protease activity associated with the proteasome complex in cultured cells; endogenous in cells; experiment: Cell-Based Proteasome Activity/Selectivity Assay (Ramos cells), substrate (ANW)2Rh110; conditions: β 5i substrate (ANW)2Rh110, highest concentration tested 20 μM, read-out: Ic50: ramos:ac-(anw)2-r110
readout: pIC50
Numbers only, as −log10 of the molar value.

• COc1ccc(C(=O)NCCn2cc(C(=O)N[C@@H](Cc3ccccc3)B(O)O)nn2)c(OC)c1OC = 8.15

Hi! Can you tell me pIC50 for each of these compounds?
1. O=C(N[C@@H](Cc1ccccc1)B(O)O)c1cn(CCNC(=O)c2ccc(C(F)(F)F)cc2F)nn1
2. COc1cc(C(F)(F)F)ccc1C(=O)NCCn1cc(C(=O)N[C@@H](Cc2ccccc2)B(O)O)nn1
3. COc1ccc(C(=O)NCCn2cc(C(=O)N[C@@H](CC(C)C)B(O)O)nn2)c(OC)c1OC

Result:
[8.70, 8.70, 8.70]

====

Exercise: for every item that follows, state its recorded IC50.
system: β 2c/2i (trypsin-like); assay: Cell-Based Proteasome Activity/Selectivity Assay (Ramos cells), substrate (KQL)2Rh110; details: β 2c/2i substrate (KQL)2Rh110, highest concentration tested 20 μM

These recorded examples may help you get a feel for the data.
• COc1ccc(C(=O)NCCn2cc(C(=O)N[C@@H](CC(C)C)B(O)O)nn2)c(OC)c1OC = > 20 µM
• COc1ccc(C(=O)NCCn2cc(C(=O)N[C@@H](Cc3ccccc3)B(O)O)nn2)c(OC)c1OC = 13.5 µM
• COc1cc(C(F)(F)F)ccc1C(=O)NCCn1cc(C(=O)N[C@@H](Cc2ccccc2)B(O)O)nn1 = > 20 µM

With those in mind, consider the next molecule.
Q: Suppose we examine the molecule "O=C(N[C@@H](Cc1ccccc1)B(O)O)c1cn(CCNC(=O)c2ccc(C(F)(F)F)cc2F)nn1" ; what IC50 value has been reported?
Result: > 20 µM

====

target: β5c (chymotrypsin-like activity) (Homo sapiens, UniProt P20618+P28074); construct: protease activity associated with the proteasome complex in cultured cells; endogenous in cells; experiment: Cell-Based Proteasome Activity/Selectivity Assay (Ramos cells), substrate (WLA)2Rh110; conditions: β 5c substrate (WLA)2Rh110, highest concentration tested 20 μM
readout: pIC50
Numbers only, as −log10 of the molar value.

These recorded examples may help you get a feel for the data.
* O=C(N[C@@H](Cc1ccccc1)B(O)O)c1cn(CCNC(=O)c2ccc(C(F)(F)F)cc2F)nn1 | 8.22
* COc1ccc(C(=O)NCCn2cc(C(=O)N[C@@H](CC(C)C)B(O)O)nn2)c(OC)c1OC | 7.41

Hi! Can you tell me pIC50 for each of these compounds?
1. COc1ccc(C(=O)NCCn2cc(C(=O)N[C@@H](Cc3ccccc3)B(O)O)nn2)c(OC)c1OC
2. COc1cc(C(F)(F)F)ccc1C(=O)NCCn1cc(C(=O)N[C@@H](Cc2ccccc2)B(O)O)nn1

Result:
[7.80, 7.70]

====

Exercise: for every item that follows, state its recorded IC50.
target: β 1i (caspase-like) (Homo sapiens, UniProt P28065+P40306); construct: protease activity associated with the proteasome complex in cultured cells; endogenous in cells; assay: Cell-Based Proteasome Activity/Selectivity Assay (Ramos cells), substrate (PAL)2Rh110; conditions: β 1i substrate (PAL)2Rh110, highest concentration tested 20 μM
Give bare numbers, in nM.

These recorded examples may help you get a feel for the data.
• O=C(N[C@@H](Cc1ccccc1)B(O)O)c1cn(CCNC(=O)c2ccc(C(F)(F)F)cc2F)nn1 [Example 3] = 10
• COc1cc(C(F)(F)F)ccc1C(=O)NCCn1cc(C(=O)N[C@@H](Cc2ccccc2)B(O)O)nn1 [Example 4] = 9
• COc1ccc(C(=O)NCCn2cc(C(=O)N[C@@H](Cc3ccccc3)B(O)O)nn2)c(OC)c1OC [Example 2] = 25

With those in mind, consider the next compound.
Q: Suppose we examine the compound COc1ccc(C(=O)NCCn2cc(C(=O)N[C@@H](CC(C)C)B(O)O)nn2)c(OC)c1OC [Example 1] ; what IC50 value has been reported?
Result: 4
